# System: EMC-BAC-2
# Test method notes: relative viability (nuclei count vs DMSO), 5 days (fraction); higher = more cells survive
# Assay setup: first compound 0.000632 µM
So basically, if relative viability comes in under 0.5 it's T, and if it's 0.5 or more it's F.

Take a look at these entries with their results.
{"Compound": "CC(=O)O[C@@]12CO[C@@H]1C[C@H](O)[C@@]1(C)C(=O)[C@H](O)C3=C(C)[C@@H](OC(=O)[C@H](O)[C@@H](NC(=O)OC(C)(C)C)c4ccccc4)C[C@@](O)([C@@H](OC(=O)c4ccccc4)[C@H]21)C3(C)C [Docetaxel] + CC(C)C[C@H](NC(=O)[C@H](Cc1ccccc1)NC(=O)c1cnccn1)B(O)O [Bortezomib] (partner 0.002 µM)", "Discrete label": "F"}
{"Compound": "CC(=O)O[C@@]12CO[C@@H]1C[C@H](O)[C@@]1(C)C(=O)[C@H](O)C3=C(C)[C@@H](OC(=O)[C@H](O)[C@@H](NC(=O)OC(C)(C)C)c4ccccc4)C[C@@](O)([C@@H](OC(=O)c4ccccc4)[C@H]21)C3(C)C [Docetaxel] + CS(=O)(=O)N1CCN(Cc2cc3nc(-c4cccc5[nH]ncc45)nc(N4CCOCC4)c3s2)CC1 [Pictilisib] (partner 1 µM)", "Discrete label": "T"}
{"Compound": "CC(=O)O[C@@]12CO[C@@H]1C[C@H](O)[C@@]1(C)C(=O)[C@H](O)C3=C(C)[C@@H](OC(=O)[C@H](O)[C@@H](NC(=O)OC(C)(C)C)c4ccccc4)C[C@@](O)([C@@H](OC(=O)c4ccccc4)[C@H]21)C3(C)C [Docetaxel] + Nc1nc2[nH]cc(CCc3ccc(C(=O)N[C@@H](CCC(=O)O)C(=O)O)cc3)c2c(=O)[nH]1 [Pemetrexed] (partner 0.2 µM)", "Discrete label": "T"}
{"Compound": "CC(=O)O[C@@]12CO[C@@H]1C[C@H](O)[C@@]1(C)C(=O)[C@H](O)C3=C(C)[C@@H](OC(=O)[C@H](O)[C@@H](NC(=O)OC(C)(C)C)c4ccccc4)C[C@@](O)([C@@H](OC(=O)c4ccccc4)[C@H]21)C3(C)C [Docetaxel] + CC(=O)c1c(C)c2cnc(Nc3ccc(N4CCNCC4)cn3)nc2n(C2CCCC2)c1=O [Palbociclib] (partner 0.5 µM)", "Discrete label": "F"}

Next item in the queue.
Does CC(=O)O[C@@]12CO[C@@H]1C[C@H](O)[C@@]1(C)C(=O)[C@H](O)C3=C(C)[C@@H](OC(=O)[C@H](O)[C@@H](NC(=O)OC(C)(C)C)c4ccccc4)C[C@@](O)([C@@H](OC(=O)c4ccccc4)[C@H]21)C3(C)C [Docetaxel] + CCNC(=O)c1noc(-c2cc(C(C)C)c(O)cc2O)c1-c1ccc(CN2CCOCC2)cc1 [Luminespib] (partner 0.01 µM) have relative viability strictly under 0.5?
F

====

# System: NCI-H2405
# Test method notes: relative viability (nuclei count vs DMSO), 5 days (fraction); higher = more cells survive
# Assay setup: first compound 15.81 µM
Reported relative viability values for a set of molecules

Examples with their reported relative viability follow.
{"Molecule": "O=C(O)CCCCC(CCSCc1ccccc1)SCc1ccccc1 (stereo not given) [CPI-613] + COc1cc2c(Oc3ccc(NC(=O)C4(C(=O)Nc5ccc(F)cc5)CC4)cc3F)ccnc2cc1OCCCN1CCOCC1 [Foretinib] (partner 0.25 µM)", "Data value": 1.03}
{"Molecule": "O=C(O)CCCCC(CCSCc1ccccc1)SCc1ccccc1 (stereo not given) [CPI-613] + O=C(CCCCCCC(=O)Nc1ccccc1)NO [Vorinostat] (partner 1 µM)", "Data value": 0.79}
{"Molecule": "O=C(O)CCCCC(CCSCc1ccccc1)SCc1ccccc1 (stereo not given) [CPI-613] + CC1(C)CCC(c2ccc(Cl)cc2)=C(CN2CCN(c3ccc(C(=O)NS(=O)(=O)c4ccc(N[C@H](CCN5CCOCC5)CSc5ccccc5)c(S(=O)(=O)C(F)(F)F)c4)cc3)CC2)C1 [Navitoclax] (partner 0.5 µM)", "Data value": 0.796}
{"Molecule": "O=C(O)CCCCC(CCSCc1ccccc1)SCc1ccccc1 (stereo not given) [CPI-613] + CCNC(=O)c1noc(-c2cc(C(C)C)c(O)cc2O)c1-c1ccc(CN2CCOCC2)cc1 [Luminespib] (partner 0.01 µM)", "Data value": 0.711}

Provide measured relative viability on NCI-H2405 for O=C(O)CCCCC(CCSCc1ccccc1)SCc1ccccc1 (stereo not given) [CPI-613] + O=C(c1cc(Cc2n[nH]c(=O)c3ccccc23)ccc1F)N1CCN(C(=O)C2CC2)CC1 [Olaparib] (partner 8 µM) please.
0.787
